# protocol.text: Hemolysis assay
# Assay type: cell-based
# test.settings: red blood cells
Bridge positions count the residues as written; N and C are the ends. Square brackets hold non-standard residues; d marks the D form. Peptide text beside a SMILES is read from it. S5 = C=CCCC[C@](C)(N)C(=O)O
measured.parameter: hemolysis at 100 µM (%)

compound="CC[C@H](C)[C@H](NC(C)=O)C(=O)N[C@H](C(=O)N[C@@H](CCC(=O)O)C(=O)N[C@@H](CC(C)C)C(=O)N[C@@H](CCC(=O)O)C(=O)N[C@@]1(C)CCCC=CCCC[C@@](C)(C(=O)N[C@@H](CC(C)C)C(=O)N[C@@H](CCCCN)C(=O)N[C@@H](CC(=O)O)C(=O)N[C@@H](CCC(=O)O)C(=O)N[C@@H](CCCCN)C(=O)N[C@@H](CCC(=O)O)C(N)=O)NC(=O)[C@H](CC(=O)O)NC(=O)[C@H](CC(C)C)NC(=O)[C@H](CC(=O)O)NC1=O)C(C)C [N1S] (Ac-IVELE[S5]DLD[S5]LKDEKE-NH2; staple 6-10)" measured_parameter="hemolysis at 100 µM" measured=0.3
